Give MFI for every item shown.
# tested.on: T1, CD47 on the surface of Jurkat cells (human, UniProt Q08722 19-323)
# T1 construct: whole, on cells; also called CD47 on jurkat cell surface; CD47 on cell surface
# assay.protocol: flow cytometry on Jurkat cells, hybridoma supernatant, anti-mouse IgG Fc FITC
Give bare numbers, in MFI.

Worked examples follow.
# binder, unit.symbol, MFI
records = [
    ("059-1.82.1 (antibody, mouse IgG3, V domains shown) VH: EVQLQQSGPELVKPGASVKMSCKASGYTFTNYVMHWVKQKPGQGLEWIGYINPYNDGTNYNEKFKGKATLTSDKSSSTAYMELSSLTSEDSAVYYCAKGGWFSMDYWGQGTSVTVSS VL: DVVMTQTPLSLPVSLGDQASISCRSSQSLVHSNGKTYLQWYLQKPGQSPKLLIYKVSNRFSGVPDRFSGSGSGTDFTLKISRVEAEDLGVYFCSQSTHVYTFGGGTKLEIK", "MFI", 9550),
    ("059-1.43.1 (antibody, mouse IgG1, V domains shown, also called 059-1.43.1 purified antibody) VH: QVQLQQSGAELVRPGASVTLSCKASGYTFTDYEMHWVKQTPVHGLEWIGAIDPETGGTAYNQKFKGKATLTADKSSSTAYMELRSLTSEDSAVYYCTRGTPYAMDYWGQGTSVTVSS VL: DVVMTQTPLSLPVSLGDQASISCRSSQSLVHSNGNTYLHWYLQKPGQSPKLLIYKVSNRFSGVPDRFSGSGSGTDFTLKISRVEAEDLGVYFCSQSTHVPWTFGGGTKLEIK", "MFI", 18500),
]

Task item: Which MFI is reported for this binder? 059-1.51.2 (antibody, mouse IgM, V domains shown, Mouse hybridoma antibody; light chain type kappa) VH: EVQLQQSGPELVKPGASVKMSCKASGYTFTNYVMHWMKQKPGQGLEWIGYINPYNDDTKYNEKFKDRATLTSDKSSSTAYMELSSLTSEDSAVYYCAKGGYYSMDYWGQGTSVTVSS VL: DVVMTQTPLSLPVSLGDQASISCRSSQSLVHSKGNTYLHWYLQKPGQSPKLLIYKVSNRFSGVPDRFSGSGSGTDFTLKISRVEAEDLGVYFCSQSTHVPFTFGSGTKLEIK
Reply: 144
